The measured values listed here are drawn from PubChem BioAssay AID1963450.

# System: 556581-035-R-J1-PDC complex spheroid growth;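 note: spheroids exposed to agents for 7 days before viability read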
# experiment_description: Anticancer human tumor 556581-035-R-J1-PDC patient-derived ovarian carcinoma cell line growth inhibition [Asc]
# stated_conditions: second compound 0.316 µM; first compound 0.0316 µM; hits give low values
The reader will find reported viability, T/C values listed item by item below.

[[record]]
compound = "NC1CCC(NC2CC2c2ccccc2)CC1 (stereo not drawn) + CNC(C)C(=O)NC1CN(S(=O)(=O)c2cccc(S(=O)(=O)N3CCC4CCC(C(=O)NC(c5ccccc5)c5ccccc5)N4C(=O)C(NC(=O)C(C)NC)C3)c2)CCC2CCC(C(=O)NC(c3ccccc3)c3ccccc3)N2C1=O"
system_under_test = "556581-035-R-J1-PDC complex spheroid growth"
recorded_endpoint = "viability, T/C"
experimental_result = "77.3%"

[[record]]
compound = "C#Cc1c(F)ccc2cc(O)cc(-c3ncc4c(N5CC6CCC(C5)N6)nc(OCC56CCCN5CC(F)C6)nc4c3F)c12 (stereo not drawn) + Cc1c(S(C)(=O)=O)c(-c2cc(F)cc(N3CCN(c4ccc(NS(=O)(=O)c5ccc(NC(CCN6CCC(C(=O)OCCCP(=O)(O)O)CC6)CSc6ccccc6)c(S(=O)(=O)C(F)(F)F)c5)cc4)CC3)c2)c(-c2ccc(Cl)cc2)n1C(C)C"
system_under_test = "556581-035-R-J1-PDC complex spheroid growth"
recorded_endpoint = "viability, T/C"
experimental_result = "55%"


Field: next compound
Task: Fill in: viability, T/C of C=CC(=O)N1CCN(c2nc(=O)n(-c3c(C)ccnc3C(C)C)c3nc(-c4c(O)cccc4F)c(F)cc23)C(C)C1 (stereo not drawn) + CNC(C)C(=O)NC1CN(S(=O)(=O)c2cccc(S(=O)(=O)N3CCC4CCC(C(=O)NC(c5ccccc5)c5ccccc5)N4C(=O)C(NC(=O)C(C)NC)C3)c2)CCC2CCC(C(=O)NC(c3ccccc3)c3ccccc3)N2C1=O is ___
Result: 92.3%
